Just for reference, PubChem BioAssay AID1159580 is where these values come from.

assay: chemical genetic growth profiling, strain panel (AID 1159580);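 further: tested at 20 µM; growth read once vehicle control cultures reached saturation at 30 °C; 1 = growth at the plate median or of vehicle wells; lower values mean less growth of the strain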; details: S. cerevisiae deletion strains, growth OD, locus YGL173C, strain kem1
About 2,000 (36%) of roughly 5,500 compounds were called active. Another 18% or so got no clear call; they are omitted. No stated cut-off is given here; in the data, active means normalized growth mostly below about 0.91 (no sharp cut-off); inconclusive means no clear call, values can overlap the other calls; inactive means mostly above about 0.92. The list shows a part of the results.
Select the matching outcome among true (1) for active, false (0) for inactive

Query string: Which outcome was entered for the molecule COc1cc(O)c(C(=O)/C=C/c2ccccc2)c(OC)c1 in this test?
Result string: false (0)

Query string: Which outcome was entered for the molecule COc1cc2c(cc1OC)C(=O)OC2 in this test?
Result string: false (0)

Query string: Which outcome was entered for the molecule c1ccc(N=Nc2ccccc2)cc1 in this test?
Result string: false (0)

Query string: Which outcome was entered for the molecule S=c1nc[nH]c2nc[nH]c12 in this test?
Result string: false (0)

Query string: Which outcome was entered for the molecule CN1CCC(=C2c3ccccc3CC(=O)c3sccc32)CC1 in this test?
Result string: false (0)

Query string: Which outcome was entered for the molecule CCOC(=O)C(=O)C1(C(=O)OCC)Oc2cc(OC)cc(OC)c2C(=O)C1c1ccccc1 (stereo unspecified) in this test?
Result string: false (0)

Query string: Which outcome was entered for the molecule CN1CCc2cc3c(cc2[C@H]1C1OC(=O)c2c1ccc1c2OCO1)OCO3 (stereo partly specified) in this test?
Result string: false (0)

Query string: Which outcome was entered for the molecule CO[C@H]1[C@H](O)[C@H](O[C@H]2CC[C@]3(C)C4CC[C@]5(C)C(C6=CC(=O)OC6)CC[C@]5(O)C4CC[C@@H]3C2)O[C@@H](C)[C@@H]1O (stereo partly specified) in this test?
Result string: false (0)

Query string: Which outcome was entered for the molecule CN(C)C(=S)SSC(=S)N(C)C in this test?
Result string: true (1)

Query string: Which outcome was entered for the molecule CC1(C)OC(=O)NC1=O in this test?
Result string: false (0)

Query string: Which outcome was entered for the molecule NCCSSCCN in this test?
Result string: false (0)

Query string: Which outcome was entered for the molecule Cc1cccc(C)c1OCC(C)N (stereo unspecified) in this test?
Result string: false (0)

Query string: Which outcome was entered for the molecule CC(N)C(=O)OC(C)(C)Cc1ccc(Cl)cc1 (stereo unspecified) in this test?
Result string: false (0)

Query string: Which outcome was entered for the molecule CCCCCCCCCCCCCCCC[N+](C)(C)C in this test?
Result string: true (1)

Query string: Which outcome was entered for the molecule CCOC(=O)c1c(C)c(Cl)c(O)c(Cl)c1O in this test?
Result string: true (1)

Query string: Which outcome was entered for the molecule Cc1[nH]c(C)c(Cl)c(=O)c1Cl in this test?
Result string: false (0)

Query string: Which outcome was entered for the molecule CC(Oc1ccccc1)C(=O)N[C@@H]1C(=O)N2[C@@H]1SC(C)(C)[C@@H]2C(=O)O (stereo partly specified) in this test?
Result string: false (0)

Query string: Which outcome was entered for the molecule COc1ccc2cc([C@H](C)C(=O)O)ccc2c1 in this test?
Result string: false (0)

Query string: Which outcome was entered for the molecule COc1cc(NC(C)CCCN)c2ncccc2c1 (stereo unspecified) in this test?
Result string: false (0)

Query string: Which outcome was entered for the molecule OCCN1C[C@@H](O)[C@@H](O)C(O)C1CO (stereo partly specified) in this test?
Result string: false (0)

Query string: Which outcome was entered for the molecule CCOC(=O)C(C)(C)Oc1ccc(Cl)cc1 in this test?
Result string: false (0)

Query string: Which outcome was entered for the molecule CC(=O)O[C@H]1[C@@H]2[C@@H](OC(=O)Cc3ccccc3)[C@@H](C)C[C@]2(OC(C)=O)C(=O)/C(C)=C/[C@H]2[C@H](CC[C@@]13CO3)C2(C)C in this test?
Result string: false (0)

Query string: Which outcome was entered for the molecule CC1CC2C3CCC4=CC(=O)C=C[C@]4(C)[C@@]3(F)[C@@H](O)C[C@]2(C)[C@@]1(O)C(=O)CO (stereo partly specified) in this test?
Result string: false (0)

Query string: Which outcome was entered for the molecule CC(=O)N[C@@H](CC(C)C)C(=O)O in this test?
Result string: false (0)

Query string: Which outcome was entered for the molecule COc1ccc2c3c1O[C@H]1C[C@@H](O)C=C[C@@]31CCN(C)C2 in this test?
Result string: false (0)

Query string: Which outcome was entered for the molecule CC(C)OC(=O)C(C)(C)Oc1ccc(C(=O)c2ccc(Cl)cc2)cc1 in this test?
Result string: false (0)

Query string: Which outcome was entered for the molecule CN1CCC(=C2c3ccccc3Sc3ccccc32)CC1 in this test?
Result string: false (0)

Query string: Which outcome was entered for the molecule COCCc1ccc(OCC(O)CNC(C)C)cc1 (stereo unspecified) in this test?
Result string: false (0)

Query string: Which outcome was entered for the molecule CCOC(=O)CCC(=O)O[C@H]1[C@H](O[C@@H]2[C@@H](C)[C@H](O[C@H]3C[C@@](C)(OC)[C@@H](O)[C@H](C)O3)[C@@H](C)C(=O)O[C@H](CC)[C@@](C)(O)[C@H](O)[C@@H](C)C(=O)[C@H](C)C[C@@]2(C)O)O[C@H](C)C[C@@H]1N(C)C in this test?
Result string: false (0)

Query string: Which outcome was entered for the molecule CCC(=O)O[C@H]1[C@H](O[C@@H]2[C@@H](C)[C@H](O[C@H]3C[C@@](C)(OC)[C@@H](O)[C@H](C)O3)[C@@H](C)C(=O)O[C@H](CC)[C@@](C)(O)[C@H](O)[C@@H](C)C(=O)[C@H](C)C[C@@]2(C)O)O[C@H](C)C[C@@H]1N(C)C in this test?
Result string: false (0)

Query string: Which outcome was entered for the molecule O=C(O)C1(O)C[C@@H](O)C(O)[C@H](O)C1 (stereo partly specified) in this test?
Result string: false (0)

Query string: Which outcome was entered for the molecule Oc1cc(Cl)ccc1Oc1ccc(Cl)cc1Cl in this test?
Result string: true (1)

Query string: Which outcome was entered for the molecule COc1ccc2cc([C@H](C)CO)ccc2c1 in this test?
Result string: false (0)

Query string: Which outcome was entered for the molecule NC(=O)C(c1ccccc1)(c1ccccc1)C1CCN(CCc2ccc3c(c2)CCO3)C1 (stereo unspecified) in this test?
Result string: false (0)

Query string: Which outcome was entered for the molecule C[C@H]1CC2C([C@@H](O)C[C@@]3(C)C2CC[C@]3(O)C(=O)CO)[C@@]2(C)C=CC(=O)C=C12 (stereo partly specified) in this test?
Result string: false (0)

Query string: Which outcome was entered for the molecule CC(=O)OCC(=O)[C@@]1(O)CCC2C3CCC4=CC(=O)CC[C@]4(C)C3C(=O)C[C@@]21C (stereo partly specified) in this test?
Result string: false (0)

Query string: Which outcome was entered for the molecule COc1cc(O)c(C(=O)/C=C/c2ccc(O)c(OC)c2)c(OC)c1 in this test?
Result string: false (0)

Query string: Which outcome was entered for the molecule COc1cc2c(cc1OC)Cc1cc(OC)c(OC)cc1Cc1cc(OC)c(OC)cc1C2 in this test?
Result string: false (0)

Query string: Which outcome was entered for the molecule CC(C)(O)[C@@H]1[C@H]2OC(=O)[C@@H]1[C@]1(O)C[C@H]3O[C@]34C(=O)O[C@H]2[C@]14C in this test?
Result string: false (0)

Query string: Which outcome was entered for the molecule NC(=O)c1ccc[n+]([C@@H]2O[C@H](COP(=O)([O-])OP(=O)(O)OC[C@H]3O[C@@H](n4cnc5c(N)ncnc54)[C@H](O)[C@@H]3O)[C@@H](O)[C@H]2O)c1 in this test?
Result string: false (0)

Query string: Which outcome was entered for the molecule CC(C(=O)O)c1ccc(-c2ccccc2)c(F)c1 (stereo unspecified) in this test?
Result string: false (0)
